# PROTOCOL_DESCRIPTION: NCI Yeast Anticancer Drug Screen. Data for the mlh1 rad18 strain (AID 175)
# MEASUREMENT_PARAMETERS: S. cerevisiae mlh1 rad18 strain growth inhibition; at 50.0 µM; hits give high values
The panel holds about 79,000 compounds, 15% with a hit somewhere; the sample as a whole holds those more often.
Here, each record is paired with measured growth inhibition data.
The response must be a number in % with no trailing unit.

growth inhibition lookup needed for O=CNC(CSC(=O)c1ccccc1)C(=O)O (configuration not stated) , thanks. -12.7

# get_value(readout='growth inhibition', item= C(=C/c1ccc(-c2ccccc2)cc1)/C=C/c1ccc(-c2ccccc2)cc1 ) 17.9

I'd like to know its growth inhibition. The compound in question is O=S(=O)(O)CCS(=O)(=O)O -45.9

I'd like to know its growth inhibition. The compound in question is Oc1ccc(C(O)CNCCCCCCNCC(O)c2ccc(O)c(O)c2)cc1O (configuration not stated) -4.65

So what does the record say about growth inhibition for CC(=O)n1nnc(CC#N)c1-c1ccccc1 ? -15.3

###

Quick reference for growth inhibition among some compounds
# PROTOCOL_DESCRIPTION: NCI Yeast Anticancer Drug Screen. Data for the rad50 strain (AID 155);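 also: 0% = growth of vehicle-only cultures of the same strain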
# MEASUREMENT_PARAMETERS: S. cerevisiae rad50 strain growth inhibition; at 50.0 µM; hits give high values
The panel holds about 79,000 compounds, 15% with a hit somewhere; the sample as a whole holds those more often.
Only the number, expressed in %, is required.

Sample answers from the record:
COMPOUND	TEST_RESULT
CCCn1c(C)nc2cc(C(F)(F)F)cc(N)c21	14.3
COc1c2occc2c(CC(O)C(C)(C)O)c2ccc(=O)oc12 (stereo unspecified)	13.4
CCCCCCCCCCCCCCCC1=NN(c2ccc([N+](=O)[O-])cc2)C(=O)C1	14.9
CCOC(=O)Nc1ccc(F)cc1F	-62.1

What growth inhibition value was documented for this compound, Cc1cccnc1Br ? -25.2

Given the compound CC12CC3C(CC1O2)C3(C)C (stereo unspecified) , what is its reported growth inhibition? -30.2

###

# PROTOCOL_DESCRIPTION: NCI Yeast Anticancer Drug Screen. Data for the mec2-1 strain (AID 157)
# MEASUREMENT_PARAMETERS: S. cerevisiae mec2-1 strain, at 50.0 µM, hits give high values
Compounds without any hit were thinned out: in the full panel of roughly 79,000, 15% have a hit. The source made the active and inactive calls. No stated cut-off is given here; in the data, active means growth inhibition above about 70%; inactive means the rest.
QUANTITY_NAME: growth inhibition

Solved entries:
COMPOUND	growth inhibition
c1ccc2c(c1)CCc1c-2n[nH]c1-c1[nH]nc2c1CCc1ccccc1-2	-10% (inactive)
[N-]=[N+]=NC12CC3CC4C5CC(CC41)CC2[C@H]5C3	-5.35% (inactive)
COc1cc(C2C(Cl)C(=O)N2NC(=O)c2ccc(NC(C)=O)cc2)cc(Br)c1O (stereo unspecified)	-14.8% (inactive)
O=C(O)CCCCC1CCSS1 (stereo unspecified)	15.8% (inactive)
O=C1C2CCCC2C1(c1ccccc1)c1ccccc1 (stereo unspecified)	38.6% (inactive)

What value of measured growth inhibition is listed for Fc1ccc(-c2cc(-c3ccc(F)cc3)cc(-c3ccc(F)cc3)c2)cc1 ? 11.5% (inactive)

###

# PROTOCOL_DESCRIPTION: NCI Yeast Anticancer Drug Screen. Data for the rad50 strain (AID 155);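 also: 0% = growth of vehicle-only cultures of the same strain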
# MEASUREMENT_PARAMETERS: S. cerevisiae rad50 strain growth inhibition; at 50.0 µM; hits give high values
The panel holds about 79,000 compounds, 15% with a hit somewhere; the sample as a whole holds those more often. Active and inactive are the calls of the source. No stated cut-off is given here; in the data, active means growth inhibition above about 70%; inactive means the rest.
Catalogue of growth inhibition values

// worked examples, growth inhibition included
COMPOUND	growth inhibition
NC(CCC(=O)NC(CSCNC(=O)Nc1ccc(Cl)cc1)C(=O)NCC(=O)O)C(=O)O (stereo not given)	-5.15% (inactive)
CCCCCCCCCCCCCCCCCCCCCCCC	0.1% (inactive)
CC1(C)CC(=O)C(C(CCC2CCCCC2=O)C2C(=O)CC(C)(C)CC2=O)C(=O)C1 (stereo not given)	38.5% (inactive)
O=C(Sc1ccccn1)c1ccccc1	4.15% (inactive)

Here is the next item to consider.
Look up growth inhibition: COC(=O)c1c(C(=O)c2ccccc2)nn2c(-c3ccccc3)c(-c3ccccc3)c(-c3ccccc3)c(-c3ccccc3)c12 10.3% (inactive)
